# TARGET_OR_TEST_SYSTEM: IKKα (Homo sapiens)
# Construct: purchased Life Technologies (Invitrogen)
# Sequence (O15111 whole entry): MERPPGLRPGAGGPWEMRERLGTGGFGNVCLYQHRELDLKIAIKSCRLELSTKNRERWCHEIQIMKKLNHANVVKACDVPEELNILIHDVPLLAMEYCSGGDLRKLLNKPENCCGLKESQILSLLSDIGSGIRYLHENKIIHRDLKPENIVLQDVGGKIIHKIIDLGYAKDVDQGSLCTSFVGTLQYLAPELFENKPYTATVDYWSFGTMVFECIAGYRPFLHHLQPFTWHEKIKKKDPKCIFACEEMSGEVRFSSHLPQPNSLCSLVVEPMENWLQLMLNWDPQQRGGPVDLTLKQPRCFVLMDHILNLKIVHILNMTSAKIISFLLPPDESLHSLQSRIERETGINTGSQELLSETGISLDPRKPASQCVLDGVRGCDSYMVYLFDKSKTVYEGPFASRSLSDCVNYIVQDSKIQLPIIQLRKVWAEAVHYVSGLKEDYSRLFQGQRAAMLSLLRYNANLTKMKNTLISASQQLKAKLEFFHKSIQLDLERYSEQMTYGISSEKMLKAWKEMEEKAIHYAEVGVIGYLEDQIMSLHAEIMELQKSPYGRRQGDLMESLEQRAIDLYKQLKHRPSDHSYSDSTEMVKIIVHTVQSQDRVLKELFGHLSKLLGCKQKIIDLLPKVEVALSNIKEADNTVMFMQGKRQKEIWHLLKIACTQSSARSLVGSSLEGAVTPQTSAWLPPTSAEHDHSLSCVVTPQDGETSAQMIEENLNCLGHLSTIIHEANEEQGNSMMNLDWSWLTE
# PROTOCOL_DETAILS: MCE kinase assay, phosphorylation of FL-1 peptide by IKKα (secondary screen)
# Type: biochemical
# CONDITION_SET: compound at 10 µM, after 2 hours (at completion of the assay); LOPAC set
OBSERVED_PROPERTY: percent inhibition of IKKα (%)
Give the number; % is assumed, so skip it.

Some compounds with recorded percent inhibition of IKKα:
{"columns": ["COMPOUND", "EXPERIMENTAL_RESULT"],
 "data": [
  ["CN(C)CCC(c1ccc(Cl)cc1)c1ccccn1.O=C(O)/C=C\\C(=O)O (racemic) [UNC10100321, (±)-Chlorpheniramine maleate salt]", -3],
  ["CN(C)CCC(c1ccccc1)c1ccccn1.O=C(O)/C=C\\C(=O)O (stereo not shown) [UNC10101037, Pheniramine maleate salt]", -0.5]
]}

Inquiry: Reported percent inhibition of IKKα for Brc1ccc([C@H]2CN3CCSC3=N2)cc1.O=C(O)C(=O)O [UNC10100081, (−)-p-Bromolevamisole oxalate] : what is it?
Reply text: -2

Inquiry: Query NC(Cc1cc(O)c(O)cc1O)C(=O)O (racemic) [UNC10100691, 6-Hydroxy-DL-DOPA] next
Reply text: 29

Inquiry: Query `COc1cc(/C=C(\C#N)C(=O)Nc2nnc(C(F)(F)F)s2)ccc1OCc1ccc(C(F)(F)F)cc1C(F)(F)F` next
Reply text: 28

Inquiry: Query `O=C1Nc2ccccc2/C1=C1/Nc2ccccc2/C1=N\O` next
Reply text: 2.5

Inquiry: Query O=c1cc(-c2ccccc2F)[nH]c2cc3c(cc12)OCO3 [UNC10100799, CHM-1 hydrate] next
Reply text: 3
